solubility at 24 h values by entry
Test Details: physchem
Format: physicochemical
Experimental Conditions: water, thermodynamic from solid
Description: Concentrations of Hed and Het during solubility, dissolution rate, and permeability studies were measured by high-performance liquid chromatography with the DAD detector (HPLC-DAD). In this study, a Shimadzu Nexera (Shimadzu Corp., Kyoto, Japan) equipped with SCL-40 system controller; DGU-403 degassing unit; LC-40B XR solvent delivery module; SIL-40C XR auto sampler; CTO-40C column oven; SPD-M40 photo diode array detector, was used. […]

| Compound | solubility at 24 h [µg/mL] |
| --- | --- |
| COc1ccc([C@@H]2CC(=O)c3c(O)cc(O)cc3O2)cc1O [Het, hesperetin] | 8 |
| COc1ccc([C@@H]2CC(=O)c3c(O)cc(O[C@@H]4O[C@H](CO[C@@H]5O[C@@H](C)[C@H](O)[C@@H](O)[C@H]5O)[C@@H](O)[C@H](O)[C@H]4O)cc3O2)cc1O [Hed, hesperidin] | 9 |

Origin of measurements: paper PMC9000012
